- Test parameters: 308.15 K; 101.33 kPa; Liquid; Sing-around technique in a fixed-path interferometer
Quantity: speed of sound (m/s)

OCCOCCO [diethylene glycol] :: 1554.9
OCCO [1,2-ethanediol] :: 1631.1
COCCOCCOC [2,5,8-trioxanonane] :: 1240.3
CCOCCOCCOCC [diethylene glycol diethyl ether] :: 1203.9

###

- Test parameters: 333.15 K; 101.33 kPa; Liquid; Sing-around technique in a fixed-path interferometer
Quantity: speed of sound (m/s)

COCCOCCOC [2,5,8-trioxanonane] :: 1143.4
COCCOCCOCCOCCOC [2,5,8,11,14-pentaoxapentadecane] :: 1253.4
CCOCCOCCOCC [diethylene glycol diethyl ether] :: 1107.9
OCCOCCOCCO [triethylene glycol] :: 1506.8
COCCOCCO [2-(2-methoxyethoxy)ethanol] :: 1296.1
CCOCCOCCO [3,6-dioxa-1-octanol] :: 1252.6
OCCOCCO [diethylene glycol] :: 1494.5
COCCOCCOCCOC [2,5,8,11-tetraoxadodecane] :: 1209.9
CCOCCO [2-ethoxyethan-1-ol] :: 1178.5
OCCO [1,2-ethanediol] :: 1571.5
